The reported numbers originate from patent US20200024330A1.

SYSTEM NAME: HIV-1 JR-CSF Env K343A (HIV-1 isolate JR-CSF) (UniProt P20871)
ASSAY NAME: cell-based or functional assay
Quick reference for Fold IC50 increase relative to wild-type among some binders
ATTRIBUTE MEASURED: Fold IC50 increase relative to wild-type (fold)

>>> result("PGT-128 (antibody, V domains shown) VH: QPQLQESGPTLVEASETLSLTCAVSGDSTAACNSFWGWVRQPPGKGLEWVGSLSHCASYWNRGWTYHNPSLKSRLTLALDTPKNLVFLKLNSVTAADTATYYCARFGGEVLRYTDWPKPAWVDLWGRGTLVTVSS VL: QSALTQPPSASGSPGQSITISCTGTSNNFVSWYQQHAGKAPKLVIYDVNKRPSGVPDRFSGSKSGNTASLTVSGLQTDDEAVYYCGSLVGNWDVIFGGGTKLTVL")
1
>>> result("PGT-127 (antibody, V domains shown) VH: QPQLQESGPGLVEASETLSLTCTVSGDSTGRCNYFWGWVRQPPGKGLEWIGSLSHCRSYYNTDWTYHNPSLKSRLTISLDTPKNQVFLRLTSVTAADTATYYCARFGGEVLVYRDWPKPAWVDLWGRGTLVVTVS VL: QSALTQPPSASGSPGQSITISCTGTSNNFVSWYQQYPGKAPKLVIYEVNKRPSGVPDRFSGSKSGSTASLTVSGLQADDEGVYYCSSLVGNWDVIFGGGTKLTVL")
1
>>> result("PGT-135 (antibody, V domains shown) VH: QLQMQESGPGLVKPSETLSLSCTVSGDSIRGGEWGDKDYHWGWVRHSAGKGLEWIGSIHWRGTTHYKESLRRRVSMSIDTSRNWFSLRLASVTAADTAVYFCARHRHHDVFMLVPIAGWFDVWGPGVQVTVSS VL: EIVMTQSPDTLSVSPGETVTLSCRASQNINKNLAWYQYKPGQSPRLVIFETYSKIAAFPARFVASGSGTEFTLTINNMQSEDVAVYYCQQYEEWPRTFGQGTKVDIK")
1.1
